Measured IC50 by item
Test system: SARS-CoV-2
Assay: microbe, parasite or virus in culture
Settings: Severe acute respiratory syndrome coronavirus 2, Vero C1008, 48 h, read-out: pIC50 (converted)

INSERT INTO measurements (compound, val) VALUES
  ('CN(C)Cc1c(C(=O)NCCOc2ccc(C(=O)NO)cc2)oc2ccccc12', '> 20 µM'),
  ('COc1ccccc1OCC(O)COC(N)=O (stereo not given)', '> 20 µM'),
  ('CCOC1O[C@H]([C@@H](COCc2ccccc2)OCc2ccccc2)[C@H](OCc2ccccc2)[C@H]1O (stereo not given in full) [TRIBENOSIDE]', '> 50.1 µM'),
  ('Cc1cc(S(N)(=O)=O)ccc1NC(=O)COc1ccc(Cl)cc1C(=O)c1cc(Cl)cc(C#N)c1', '> 20 µM');

Here is the next item to consider.
For the compound `Nc1c2c(nc3c1CCC3)CCCC2` , what IC50 is on record?
> 20 µM

###

As shown below, each of these compounds has a reported IC50 value.
System: SARS-CoV-2
Experiment: microbe, parasite or virus in culture
Type: functional, organism-based, Chlorocebus sabaeus, Vero C1008
Conditions: Severe acute respiratory syndrome coronavirus 2, Vero C1008, 48 h; read-out: IC50

INSERT INTO results (compound, val) VALUES
  ('CO[C@H]1CC[C@H](n2c([C@@H]3CCCC(=O)N3c3ccc(F)c(F)c3)nc3cc(-c4c(C)noc4C)ccc32)CC1', '> 100 µM'),
  ('CC[C@H](C(=O)[C@H](C)[C@@H](O)[C@H](C)CCc1ccc(C)c(O)c1C(=O)O)[C@@H]1O[C@@](CC)([C@H]2CC[C@](O)(CC)[C@@H](C)O2)C[C@@H]1C', '1.07 µM'),
  ('O=C(NO)c1ccc(C2=Nc3ccccc3Oc3ccccc32)cc1', '> 100 µM'),
  ('CCCSc1ccccc1N1CCN(CCCCn2c(=O)[nH]c3ccccc3c2=O)CC1', '> 100 µM'),
  ('C#C[C@]1(O)CC[C@H]2[C@@H]3CCC4=CCCC[C@@H]4[C@H]3CC[C@@]21C', '> 50.1 µM');

# next compound below
# get_value(readout='IC50', item= `C=CC(=O)Nc1cc(Nc2nccc(-c3cn(C)c4ccccc34)n2)c(OC)cc1N(C)CCN(C)C` )
> 100 µM

###

Entries and their measured CC50 at 48 h follow.
Assay: in vitro
Conditions: chlorocebus sabaeus, Vero E6 (Vero C1008) cells, CC50
// return numeric value only (unit: µM, not printed)

Reported CC50 at 48 h for CCCCN(CCCC)CCC(O)c1cc2c(Cl)cc(Cl)cc2c2cc(C(F)(F)F)ccc12 (stereo not drawn) : what is it?
11.5

Sample COc1ccc(C#Cc2ccccc2)c(CCC(C)N(C)CCc2ccc(OC)c(OC)c2)c1 (stereo not drawn) — what was its CC50 at 48 h?
4.84

Would you kindly share the measured CC50 at 48 h for CC(CN(C)C)CN1c2ccccc2Sc2ccccc21 (stereo not drawn) ?
21.4

Which value of CC50 at 48 h has been reported for `COc1ccc(CCN2CCC(Nc3nc4ccccc4n3Cc3ccc(F)cc3)CC2)cc1` in the records?
7.5

Item `CC(C)(C)NC[C@H](O)COc1ccccc1C1CCCC1` has what recorded CC50 at 48 h?
29.5

Which CC50 at 48 h value is on record for `CN(C)CCCN1c2ccccc2Sc2ccccc21` ?
25.7

CC50 at 48 h for `Cn1cncc1[C@@](N)(c1ccc(Cl)cc1)c1ccc2c(c1)c(-c1cccc(Cl)c1)cc(=O)n2C` ?
13.3

Form field: reported CC50 at 48 h of `N#Cc1ccc2c(c1)N(CCCN1CCC(O)CC1)c1ccccc1S2`
12.7

Reported CC50 at 48 h, molecule `CC(C)[C@H](N/C(=N\S(=O)(=O)c1ccc(Cl)cc1)N1C[C@@H](c2ccccc2)C(c2ccc(Cl)cc2)=N1)C(N)=O` : ____
16

Any idea what CC50 at 48 h was measured for `CCn1cc(-c2ccnc3[nH]c(-c4cccc(CN(C)C)c4)cc23)c(-c2ccc(NC(=O)N(C)C)cc2)n1` ?
9.33
